# Tested on: Rattus norvegicus
# PROTOCOL: Dose normalized AUC in rat at 5 mg/kg, po
# Assay type: ADME, organism-based
# Set-up: dose 5 mg/kg, route oral
# CONDITIONS_USED: in vivo
For each record, check the reported AUC/dose: if it is below 20 ng·kg·h/mL/mg write TRUE, else write FALSE.

>>> print(df.to_string())
                              record_smiles  group_label
0  CC(C)c1onc(-c2c(Cl)cccc2Cl)c1COc1ccc(-c2ccc3c(C(=O)O)csc3c2)cc1         TRUE
1  CC(C)c1onc(-c2c(Cl)cccc2Cl)c1COc1ccc(-c2ccc3nc(C(=O)O)ccc3c2)cc1        FALSE
2  CC(C)c1onc(-c2c(Cl)cccc2Cl)c1COc1ccc(-c2ccc3oc(C(=O)O)cc3c2)cc1        FALSE
3  CC(C)c1onc(-c2c(Cl)cccc2Cl)c1COc1ccc(-c2ccc3cc(C(=O)O)[nH]c3c2)cc1         TRUE
4  CC(C)c1onc(-c2c(Cl)cccc2Cl)c1COc1ccc(-c2ccc3c(C(=O)O)c[nH]c3c2)cc1         TRUE

// provenance: ChEMBL document CHEMBL1833944
